Tested on: 628569-122-R-J1-PDC complex spheroid viability
Method: Anticancer human tumor 628569-122-R-J1-PDC patient-derived head and neck squamous carcinoma cell line growth inhibition [CLK]
Test context: second compound 0.316 µM; first compound 0.316 µM; hits give low values
I'd appreciate it if you could supply viability, T/C values for the items below.

State its viability, T/C: CC1COCCN1c1cc(C2(S(C)(=N)=O)CC2)nc(-c2ccnc3[nH]ccc23)n1 (stereo not drawn) + CNC(=O)c1ccc(Nc2nc(OC3CCCC3)c3c(-c4ccc5nc(C)oc5c4)c[nH]c3n2)c(OC)c1
50.9%

State its viability, T/C: C=C(F)C(=O)N1CCN(c2nc(OCC3CCCN3C)nc3c2CCN(c2cccc4cccc(Cl)c24)C3)CC1CC#N (stereo not drawn) + CNC(=O)c1ccc(Nc2nc(OC3CCCC3)c3c(-c4ccc5nc(C)oc5c4)c[nH]c3n2)c(OC)c1
49.3%

State its viability, T/C: Nc1ccn(C2OC(CO)C(O)C2(F)F)c(=O)n1 (stereo not drawn) + CNC(=O)c1ccc(Nc2nc(OC3CCCC3)c3c(-c4ccc5nc(C)oc5c4)c[nH]c3n2)c(OC)c1
50.5%

###

Tested on: 628569-122-R-J1-PDC complex spheroid viability
Method: Anticancer human tumor 628569-122-R-J1-PDC cell line growth inhibition [CLK];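 also: spheroids exposed to agents for seven days before readout; 100% = DMSO vehicle control viability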
Test context: second compound 3.16 µM; first compound 0.0316 µM; hits give low values
Readout: viability, T/C (%)
Give your result in % as a bare value.

State its viability, T/C: COC1C=CCC(C)C(C)S(=O)(=O)NC(=O)c2ccc3c(c2)N(CC2CCC21)CC1(CCCc2cc(Cl)ccc21)CO3 (stereo not drawn) + CN1CCN(c2cc(C(=O)Nc3cc4cc(-c5cnn(C)c5)ccc4cn3)ccn2)CC1
5.37

State its viability, T/C: CC(CO)NC(=O)c1cc(-c2ccc(Cl)cc2)nn(-c2cnn(C)c2)c1=O (stereo not drawn) + CN1CCN(c2cc(C(=O)Nc3cc4cc(-c5cnn(C)c5)ccc4cn3)ccn2)CC1
7.85

State its viability, T/C: O=C(c1cc(Cc2n[nH]c(=O)c3ccccc23)ccc1F)N1CCN(C(=O)C2CC2)CC1 + CN1CCN(c2cc(C(=O)Nc3cc4cc(-c5cnn(C)c5)ccc4cn3)ccn2)CC1
6.83

###

I'd appreciate it if you could supply viability, T/C values for the items below.
Test system: 628569-122-R-J1-PDC complex spheroid viability
Method: Anticancer human tumor 628569-122-R-J1-PDC cell line growth inhibition [CLK];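 also: spheroids exposed to agents for seven days before readout; 100% = DMSO vehicle control viability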
Test context: second compound 3.16 µM; first compound 0.00316 µM; hits give low values
Description: A high-throughput screen of multi-cell type tumor spheroids was designed to identify active combinations of […] and targeted small molecules. Complex spheroids include a stromal component modeled by human endothelial cells (HUVEC) and fibroblasts modeled by human mesenchymal stem cells (MSCs). […] Compounds. […] If the clinical Cmax for an agent had not been determined, the highest concentration tested was 10 microM. […]

State its viability, T/C: CCN1CCN(Cc2ccc(Nc3ncc(F)c(-c4cc(F)c5nc(C)n(C(C)C)c5c4)n3)nc2)CC1 + CNC(=O)c1ccc(Nc2nc(OC3CCCC3)c3c(-c4ccc5nc(C)oc5c4)c[nH]c3n2)c(OC)c1
48.2%

State its viability, T/C: COc1c(OCCCN2CCOCC2)ccc2c3n(c(=NC(=O)c4cnc(N)nc4)nc12)CCN3 + CN1CCN(c2cc(C(=O)Nc3cc4cc(-c5cnn(C)c5)ccc4cn3)ccn2)CC1
5.32%

State its viability, T/C: CCc1c2c(nc3ccc(O)cc13)-c1cc3c(c(=O)n1C2)COC(=O)[C@]3(O)CC + CN1CCN(c2cc(C(=O)Nc3cc4cc(-c5cnn(C)c5)ccc4cn3)ccn2)CC1
9.55%

State its viability, T/C: CCc1c2c(nc3ccc(O)cc13)-c1cc3c(c(=O)n1C2)COC(=O)[C@]3(O)CC + CNC(=O)c1ccc(Nc2nc(OC3CCCC3)c3c(-c4ccc5nc(C)oc5c4)c[nH]c3n2)c(OC)c1
39.8%

State its viability, T/C: Cn1ncnc1[C@H]1c2n[nH]c(=O)c3cc(F)cc(c23)N[C@@H]1c1ccc(F)cc1 + CN1CCN(c2cc(C(=O)Nc3cc4cc(-c5cnn(C)c5)ccc4cn3)ccn2)CC1
6.67%

State its viability, T/C: Cn1ncnc1[C@H]1c2n[nH]c(=O)c3cc(F)cc(c23)N[C@@H]1c1ccc(F)cc1 + CNC(=O)c1ccc(Nc2nc(OC3CCCC3)c3c(-c4ccc5nc(C)oc5c4)c[nH]c3n2)c(OC)c1
48.5%

State its viability, T/C: CCN1CCN(Cc2ccc(Nc3ncc(F)c(-c4cc(F)c5nc(C)n(C(C)C)c5c4)n3)nc2)CC1 + CN1CCN(c2cc(C(=O)Nc3cc4cc(-c5cnn(C)c5)ccc4cn3)ccn2)CC1
9.03%

State its viability, T/C: COc1c(OCCCN2CCOCC2)ccc2c3n(c(=NC(=O)c4cnc(N)nc4)nc12)CCN3 + CNC(=O)c1ccc(Nc2nc(OC3CCCC3)c3c(-c4ccc5nc(C)oc5c4)c[nH]c3n2)c(OC)c1
41.6%
